Just for reference, the supplement of paper PMC11061612 is where these values come from.

# Tested on: HT-1376 (Bladder Carcinoma);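 also: after 72 h of two-drug dosing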
# MEASUREMENT_PROTOCOL: Bliss excess, mean over the matrix (fraction); higher = more synergy

COMPOUND: Cn1cnc2c(F)c(Nc3ccc(Br)cc3Cl)c(C(=O)NOCCO)cc21 [Selumetinib] + C=CCn1c(=O)c2cnc(Nc3ccc(N4CCN(C)CC4)cc3)nc2n1-c1cccc(C(C)(C)O)n1 [AZD1775] (first compound max 10 µM, partner max 1 µM)
Bliss excess: -0.0093
//
COMPOUND: C[C@@H]1COCCN1c1cc(C2([S@](C)(=N)=O)CC2)nc(-c2ccnc3[nH]ccc23)n1 [AZD6738] + C1CC(C1)(C(=O)[O-])C(=O)[O-].N.N.[Pt+2] [Carboplatin] (first compound max 10 µM, 7x7, partner max 10 µM)
Bliss excess: -0.039
//
COMPOUND: Cn1cnc2c(F)c(Nc3ccc(Br)cc3Cl)c(C(=O)NOCCO)cc21 [Selumetinib] + C[C@@H]1COCCN1C2=NC(=NC(=C2)C3(CC3)[S@](=N)(=O)C)C4=C5C=CNC5=NC=C4 [AZD6738] (first compound max 10 µM, 7x7, partner max 10 µM)
Bliss excess: -0.021
